# assay-target: 11β-HSD1 (Homo sapiens)
# Construct: detecting cortisol generated from cortisterone by human liver microsomes; from tissue; host or cells: human liver microsomes
# protocol-description: In vitro inhibition of 11β-HSD1, HTRF detection of cortisol generated from cortisone by human liver microsomes
# Format: biochemical
# condition-description: compound concentration 1 μM, 100% indicates no inhibition, zero or below zero indicates complete inhibition
Simple rule here: 11β-HSD1 remaining activity (% of control) less than -20 % CTL is true, otherwise false.

1) NC(=O)C1CCN(C(=O)N2[C@@H]3CC[C@H]2C[C@@H](c2ccc(F)cc2)C3)CC1    true

Ask: Record O=C(N1CCCC2(CCCNC2=O)C1)N1[C@@H]2CC[C@H]1C[C@@H](c1ccc(F)cc1)C2 (some centres unmarked) : is its 11β-HSD1 remaining activity (% of control) strictly below -20 % CTL?
Reply: false

Ask: Record CC(C)(O)C1CCN(C(=O)N2[C@@H]3CC[C@H]2C[C@@H](c2ccc(F)cc2)C3)CC1 : is its 11β-HSD1 remaining activity (% of control) strictly below -20 % CTL?
Reply: false

* * *

# assay-target: 11β-HSD1 (Homo sapiens, UniProt P28845)
# Construct: detecting cortisol generated from cortisterone by human liver microsomes; from tissue; host or cells: human liver microsomes
# Sequence (P28845 whole entry): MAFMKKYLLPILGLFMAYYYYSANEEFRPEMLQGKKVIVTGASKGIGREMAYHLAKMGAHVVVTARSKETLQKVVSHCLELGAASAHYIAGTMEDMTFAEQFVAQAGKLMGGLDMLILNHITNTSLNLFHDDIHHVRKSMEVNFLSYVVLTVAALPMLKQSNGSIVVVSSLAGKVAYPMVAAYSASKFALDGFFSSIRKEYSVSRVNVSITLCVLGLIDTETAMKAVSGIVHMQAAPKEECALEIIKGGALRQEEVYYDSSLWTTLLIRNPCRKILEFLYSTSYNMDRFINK
# protocol-description: In vitro inhibition of 11β-HSD1, HTRF detection of cortisol generated from cortisone by human liver microsomes
# Assay type: biochemical
# condition-description: compound concentration 1 μM, 100% indicates no inhibition, zero or below zero indicates complete inhibition
In this section we review reported 11β-HSD1 remaining activity (% of control) values for a set of molecules.
Respond numerically; units are % CTL and should not be typed.

Ask: Please look up its 11β-HSD1 remaining activity (% of control): O=C(N1CCc2sccc2C1)N1[C@@H]2CC[C@H]1C[C@@H](c1ccc(F)cc1)C2
Reply: −57

Ask: Please look up its 11β-HSD1 remaining activity (% of control): CC1(O)CCN(C(=O)N2[C@@H]3CC[C@H]2C[C@@H](c2ccc(F)cc2)C3)CC1
Reply: −23

Ask: Please look up its 11β-HSD1 remaining activity (% of control): O=C(N1CCc2nc[nH]c2C1)N1[C@@H]2CC[C@H]1C[C@@H](c1ccc(F)cc1)C2
Reply: 65

Ask: Please look up its 11β-HSD1 remaining activity (% of control): O=C(N1C2CCC1CC(O)(C(F)(F)F)C2)N1[C@@H]2CC[C@H]1C[C@@H](c1ccc(F)cc1)C2 (some centres unmarked)
Reply: −11

Ask: Please look up its 11β-HSD1 remaining activity (% of control): O=C(N1CCCC1)N1[C@@H]2CC[C@H]1C[C@@H](c1ccc(F)cc1)C2
Reply: −3

* * *

In this section we review reported 11β-HSD1 remaining activity (% of control) values for a set of compounds.
# assay-target: 11β-HSD1 (Homo sapiens, UniProt P28845)
# Construct: detecting cortisol generated from cortisterone by human liver microsomes; from tissue; host or cells: human liver microsomes
# protocol-description: In vitro inhibition of 11β-HSD1, HTRF detection of cortisol generated from cortisone by human liver microsomes
# Type: biochemical
# condition-description: compound concentration 1 μM, 100% indicates no inhibition, zero or below zero indicates complete inhibition
Respond numerically; units are % CTL and should not be typed.

1. O=C(N1CCC(O)CC1)N1[C@@H]2CC[C@H]1C[C@@H](c1ccc(F)cc1)C2    −46
2. O=C(N1CCC(CO)CC1)N1[C@@H]2CC[C@H]1C[C@@H](c1ccc(F)cc1)C2    −20
3. O=C(N1[C@@H]2CC[C@H]1C[C@@H](O)C2)N1[C@@H]2CC[C@H]1C[C@@H](c1ccc(F)cc1)C2    −59
4. COC(=O)C1CCN(C(=O)N2[C@@H]3CC[C@H]2C[C@@H](c2ccc(F)cc2)C3)CC1    20

Ask: Item N#CC1CCN(C(=O)N2[C@@H]3CC[C@H]2C[C@@H](c2ccc(F)cc2)C3)CC1 with 11β-HSD1 (Homo sapiens, UniProt P28845) - 11β-HSD1 remaining activity (% of control)?
Reply: −27

Ask: Item COC1CCN(C(=O)N2[C@@H]3CC[C@H]2C[C@@H](c2ccc(F)cc2)C3)CC1 with 11β-HSD1 (Homo sapiens, UniProt P28845) - 11β-HSD1 remaining activity (% of control)?
Reply: −25

Ask: Item O=C(N1CCOCC1)N1[C@@H]2CC[C@H]1C[C@@H](c1ccc(F)cc1)C2 with 11β-HSD1 (Homo sapiens, UniProt P28845) - 11β-HSD1 remaining activity (% of control)?
Reply: −29

Ask: Item O=C(N1CCC(O)(C(F)(F)F)CC1)N1[C@@H]2CC[C@H]1C[C@@H](c1ccc(F)cc1)C2 with 11β-HSD1 (Homo sapiens, UniProt P28845) - 11β-HSD1 remaining activity (% of control)?
Reply: −30

* * *

# assay-target: 11β-HSD1 (Homo sapiens, UniProt P28845)
# Construct: detecting cortisol generated from cortisterone by human liver microsomes; from tissue; host or cells: human liver microsomes
# protocol-description: In vitro inhibition of 11β-HSD1, HTRF detection of cortisol generated from cortisone by human liver microsomes
# Format: biochemical
# condition-description: compound concentration 1 μM, 100% indicates no inhibition, zero or below zero indicates complete inhibition
measured-endpoint: 11β-HSD1 remaining activity (% of control)

These recorded examples may help you get a feel for the data.
1) CC(=O)NC1CCN(C(=O)N2[C@@H]3CC[C@H]2C[C@@H](c2ccc(F)cc2)C3)CC1    46 % CTL
2) O=C(O)C1CCN(C(=O)N2[C@@H]3CC[C@H]2C[C@@H](c2ccc(F)cc2)C3)CC1    4 % CTL
3) O=C(N1CCCCC1)N1[C@@H]2CC[C@H]1C[C@@H](c1ccc(F)cc1)C2    −49 % CTL
4) O=C(N1CCCC(CO)C1)N1[C@@H]2CC[C@H]1C[C@@H](c1ccc(F)cc1)C2 (some centres unmarked)    −17 % CTL

Could you now look at the following compound, please?
Ask: Please look up its 11β-HSD1 remaining activity (% of control): O=C(N1CCCC2(CCNC2=O)C1)N1[C@@H]2CC[C@H]1C[C@@H](c1ccc(F)cc1)C2 (some centres unmarked)
Reply: 34 % CTL
